# Tested on: CDK2 (Homo sapiens)
# Construct: HEK293 clonal lines with CRISPR KI HiBiT tag on CDK2 proteins; host or cells: HEK293 clonal line, CRISPR knock-in HiBiT-CDK2, stably expressing LgBiT
# Experiment summary: NanoBiT assay (CDK2 degradation)
# Format: cell-based
# Protocol conditions: HEK293, HEK293 clonal line with CRISPR KI HiBiT tag on CDK2, Endurazine live cell substrate, 24 hours
Measured parameter: Dmax

C[C@H]1C[C@@H](COC(=O)NCc2ccc3c(c2)C(=O)N(C2CCC(=O)NC2=O)C3)C1 (stereo partly shown) [Compound 120] = 10 to 50%
O=C1CCC(N2Cc3c(Br)cc(CNc4nnc(C5CC6(CCC6)C5)o4)c(O)c3C2=O)C(=O)N1 (stereo not shown) [Compound 137] = 50 to 80%
O=C1CCC(N2Cc3ccc(CNC(=O)OC(C4CC4)C4CC5(CCC5)C4)cc3C2=O)C(=O)N1 (stereo not shown) [Compound 108] = 10 to 50%
COCC1(COC(=O)NCc2ccc3c(c2)C(=O)N(C2CCC(=O)NC2=O)C3)CCCC1 (stereo not shown) [Compound 57] = ≤ 10%
CCC1(CCCOC(=O)NCc2ccc3c(c2)C(=O)N(C2CCC(=O)NC2=O)C3)CC1 (stereo not shown) [Compound 101] = 10 to 50%
CC(C)(C)OC(=O)N1CC(COC(=O)NCc2ccc3c(c2)C(=O)N(C2CCC(=O)NC2=O)C3)C1 (stereo not shown) [Compound 45] = ≤ 10%

// switching to the query compound
Input line: Identify measured Dmax corresponding to O=C1CCC(N2Cc3ccc(CNC(=O)OCC4CCC[C@H]4C(F)(F)F)cc3C2=O)C(=O)N1 (mixture of isomers) [Compound 73]
Output line: ≤ 10%

* * *

Below: a set of entries, each annotated with reported Ki.
# Tested on: CRBN-DDB1 (Homo sapiens)
# Sequence (Q96SW2 whole entry): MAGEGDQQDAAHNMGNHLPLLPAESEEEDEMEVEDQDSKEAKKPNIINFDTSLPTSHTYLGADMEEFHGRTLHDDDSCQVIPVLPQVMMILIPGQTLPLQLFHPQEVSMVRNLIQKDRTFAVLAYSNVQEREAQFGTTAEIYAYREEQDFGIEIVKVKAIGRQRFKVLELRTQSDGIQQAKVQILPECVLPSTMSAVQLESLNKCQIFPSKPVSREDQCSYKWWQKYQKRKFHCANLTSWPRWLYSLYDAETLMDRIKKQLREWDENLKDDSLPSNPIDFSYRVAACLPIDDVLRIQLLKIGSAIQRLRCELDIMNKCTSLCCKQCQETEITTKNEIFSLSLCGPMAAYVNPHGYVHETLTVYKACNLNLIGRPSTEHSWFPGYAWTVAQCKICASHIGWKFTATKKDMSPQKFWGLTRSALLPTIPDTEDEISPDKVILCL
# Sequence (Q16531 whole entry partner): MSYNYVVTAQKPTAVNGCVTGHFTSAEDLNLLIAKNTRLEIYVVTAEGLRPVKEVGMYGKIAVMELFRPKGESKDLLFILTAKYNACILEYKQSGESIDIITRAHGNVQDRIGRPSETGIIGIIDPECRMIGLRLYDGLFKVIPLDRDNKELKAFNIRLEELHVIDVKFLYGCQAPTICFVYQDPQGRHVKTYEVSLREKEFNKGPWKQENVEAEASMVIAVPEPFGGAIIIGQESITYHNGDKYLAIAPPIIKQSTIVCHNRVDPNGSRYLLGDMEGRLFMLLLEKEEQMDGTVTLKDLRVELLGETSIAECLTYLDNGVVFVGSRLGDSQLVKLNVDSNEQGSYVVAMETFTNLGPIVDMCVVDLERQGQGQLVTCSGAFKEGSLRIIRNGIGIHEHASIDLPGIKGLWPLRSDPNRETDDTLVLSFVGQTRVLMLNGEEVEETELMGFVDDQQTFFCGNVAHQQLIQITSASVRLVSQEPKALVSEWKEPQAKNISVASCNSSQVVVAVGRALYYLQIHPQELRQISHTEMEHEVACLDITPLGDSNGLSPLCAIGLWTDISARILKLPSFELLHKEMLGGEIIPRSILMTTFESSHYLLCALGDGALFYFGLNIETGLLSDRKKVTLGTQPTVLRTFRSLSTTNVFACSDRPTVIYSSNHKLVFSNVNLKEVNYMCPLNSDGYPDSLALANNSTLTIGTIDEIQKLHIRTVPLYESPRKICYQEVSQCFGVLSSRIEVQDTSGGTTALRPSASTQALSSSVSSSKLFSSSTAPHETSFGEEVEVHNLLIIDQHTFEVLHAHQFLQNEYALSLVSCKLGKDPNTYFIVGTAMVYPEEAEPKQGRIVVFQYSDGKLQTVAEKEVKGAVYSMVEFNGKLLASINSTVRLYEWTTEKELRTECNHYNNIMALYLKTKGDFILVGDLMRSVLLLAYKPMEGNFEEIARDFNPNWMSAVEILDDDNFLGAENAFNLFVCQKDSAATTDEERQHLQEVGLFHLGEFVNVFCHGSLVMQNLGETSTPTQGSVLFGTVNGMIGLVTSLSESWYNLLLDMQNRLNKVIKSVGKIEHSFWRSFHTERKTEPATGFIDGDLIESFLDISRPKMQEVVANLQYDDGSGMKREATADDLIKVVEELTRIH

O=C1CCC(N2Cc3ccc(CNC(=O)OC4CCC5(CC4)CC5)cc3C2=O)C(=O)N1 (stereo not drawn) = 100 to 1000 nM
O=C1CCC(N2Cc3ccc(CNC(=O)OCC4OCCc5ccccc54)cc3C2=O)C(=O)N1 (stereo not drawn) = ≤ 100 nM
CC1(C)CCC1OC(=O)NCc1ccc2c(c1)C(=O)N(C1CCC(=O)NC1=O)C2 (stereo not drawn) = 100 to 1000 nM
O=C1CCC(N2Cc3ccc(CNC(=O)OCC4CC(F)(F)C4)cc3C2=O)C(=O)N1 (stereo not drawn) = ≤ 100 nM
CCOC1CC(COC(=O)NCc2ccc3c(c2)C(=O)N(C2CCC(=O)NC2=O)C3)C1 (stereo not drawn) = 100 to 1000 nM

Input line: Would you please give the reported Ki of O=C1CCC(N2Cc3ccc(CNC(=O)OCC4CC5(CCC5)C4)cc3C2=O)C(=O)N1 (stereo not drawn) with CRBN-DDB1 (Homo sapiens)?
Output line: 100 to 1000 nM

Input line: State measured Ki of the compound O=C1CCC(N2Cc3ccc(CNC(=O)OCC4CC5(CC5)C4)cc3C2=O)C(=O)N1 (stereo not drawn) with CRBN-DDB1 (Homo sapiens).
Output line: 100 to 1000 nM

Input line: Would you please give the reported Ki of O=C1CCC(N2Cc3ccc(CNC(=O)O[C@@H]4CCC[C@H]4c4ccccc4)cc3C2=O)C(=O)N1 (mixture of isomers) with CRBN-DDB1 (Homo sapiens)?
Output line: ≤ 100 nM

Input line: Find the measured Ki of O=C1CCC(N2Cc3ccc(CNC(=O)OC4CC5(CCCC5)C4)cc3C2=O)C(=O)N1 (stereo not drawn) with CRBN-DDB1 (Homo sapiens) as test system.
Output line: 100 to 1000 nM
